- assay-method-text: Ionisation constant of the compound
- Type: ADME
measured-property: pKa
One number for each entry.

Below are worked cases with known answers.
compound	measured-property	result
CC1CC(=O)N(CCN2CCN(c3cccc4c3OCCO4)CC2)C1=O (stereo unspecified)	pKa	6.16
O=C1C2CCCCC2C(=O)N1CCN1CCN(c2cccc3c2OCCO3)CC1 (stereo unspecified)	pKa	6.07
O=C1C=CC(=O)N1CCN1CCN(c2cccc3c2OCCO3)CC1	pKa	5.9
O=C1CCCC(=O)N1CCN1CCN(c2cccc3c2OCCO3)CC1	pKa	6.4
CC1(C)CC(=O)N(CCN2CCN(c3cccc4c3OCCO4)CC2)C(=O)C1	pKa	6.42
O=C1CC2(CCCC2)CC(=O)N1CCN1CCN(c2cccc3c2OCCO3)CC1	pKa	6.51
O=C1CCC(=O)N1CCN1CCN(c2cccc3c2OCCO3)CC1	pKa	6.16
O=C1C2CC=CCC2C(=O)N1CCN1CCN(c2cccc3c2OCCO3)CC1 (stereo unspecified)	pKa	6.05
Cc1ccc2c(c1)C(=O)N(CCN1CCN(c3cccc4c3OCCO4)CC1)C2=O	pKa	6.1
O=C1C2=C(CCCC2)C(=O)N1CCN1CCN(c2cccc3c2OCCO3)CC1	pKa	6.3

For the next question, use this compound.
What does the data say about its pKa? Entry: CC1=CC(=O)N(CCN2CCN(c3cccc4c3OCCO4)CC2)C1=O 6.3
